Literature Ki values, system: Amine oxidase [flavin-containing] A (Homo sapiens).

{"columns": ["molecule", "quantity name", "reported"],
 "data": [
  ["CCC(=O)NC[C@H]1CN(c2ccc([C@H]3CC[S@@+]([O-])CC3)c(F)c2)C(=O)O1", "Ki", "> 3000 µM"]
]}

Can you give me Ki for all of these, one by one?
1. COC(=O)NC[C@H]1CN(c2cc(F)c3c(c2)CC(=O)N3C(C)C)C(=O)O1
2. O=C(Cn1ccnc1)c1ccc(-c2ccc(N3C[C@H](Cn4ccnn4)OC3=O)cc2F)cn1
3. O=C(NC[C@H]1CN(c2ccc(C3CCS(=O)(=O)CC3)c(F)c2)C(=O)O1)C(Cl)Cl
4. O=C1O[C@@H](Cn2ccnn2)CN1c1ccc(-c2ccc(C3=NO[C@@H]([C@H](O)CO)C3)nc2)c(F)c1

1. > 500 µM
2. > 5 µM
3. > 3000 µM
4. ~35 µM

Okay, here is my list. What is Ki for each of these?
1. CN(C)CCNC(=O)CN[C@H]1C[C@@H]1c1ccccc1 (relative stereo)
2. O=C(NC[C@H]1CN(c2ccc([C@H]3CC[S@+]([O-])CC3)c(F)c2)C(=O)O1)C1CC1

1. > 40 µM
2. > 3000 µM
